pIC50: −log10 of the molar value.
Hi! I'm sharing some pIC50 results obtained with UniProt:P9WKE1.
Sequence (P9WKE1 whole entry, looked up): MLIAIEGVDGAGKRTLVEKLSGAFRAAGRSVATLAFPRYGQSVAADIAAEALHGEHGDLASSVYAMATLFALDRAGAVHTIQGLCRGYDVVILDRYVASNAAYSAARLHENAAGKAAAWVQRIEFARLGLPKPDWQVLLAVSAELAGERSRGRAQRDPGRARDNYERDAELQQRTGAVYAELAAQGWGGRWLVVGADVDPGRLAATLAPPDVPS
test-readout: pIC50

> print(dat)
                                    compound  measured.number
 1  Cc1cn(C2CCCN(C(=O)c3cccc(Oc4ccccc4)c3)C2)c(=O)[nH]c1=O (racemic)             4.55
 2  Cc1cn(C2CCCN(C(=O)c3cccc(Oc4cccc(C(F)(F)F)c4)c3)C2)c(=O)[nH]c1=O (centres unmarked)             4.28
 3  Cc1cn(C2CCCN(C(=O)c3cccc(Oc4ccc(F)cc4)c3)C2)c(=O)[nH]c1=O (centres unmarked)             4.74
 4  Cc1cn(C2CCCN(C(=O)c3cccc(Oc4ccc(Cl)cc4)c3)C2)c(=O)[nH]c1=O (centres unmarked)             4.41
 5  COc1cccc(Oc2cccc(C(=O)N3CCCC(n4cc(C)c(=O)[nH]c4=O)C3)c2)c1 (centres unmarked)             4.82
 6  Cc1cn(C2CCCN(C(=O)c3cccc(Oc4ccc(F)c(F)c4)c3)C2)c(=O)[nH]c1=O (centres unmarked)             4.64
 7  Cc1cn(C2CCCN(C(=O)c3cccc(Oc4cccc(N(C)C)c4)c3)C2)c(=O)[nH]c1=O (centres unmarked)             4.41
 8  Cc1cn(C2CCCN(C(=O)c3cccc(Oc4cc(Cl)cc(Cl)c4)c3)C2)c(=O)[nH]c1=O (centres unmarked)             4.89
 9  Cc1cn(C2CCCN(C(=O)c3cccc(Oc4ccc([N+](=O)[O-])cc4)c3)C2)c(=O)[nH]c1=O (centres unmarked)             4.52
10  Cc1cn(C2CCCN(C(=O)c3cccc(Oc4ccc(Cl)c(Cl)c4)c3)C2)c(=O)[nH]c1=O (centres unmarked)             4.74
11  Cc1cn(C2CCCN(C(=O)c3cccc(Oc4cc(F)cc(F)c4)c3)C2)c(=O)[nH]c1=O (centres unmarked)             4.51
